Organism: Rattus norvegicus
Assay: Open TG-GATES - Regimen: Daily Repeat
Assay type: toxicity, organism-based, Sprague-Dawley
Design: regimen Daily Repeat, gender Male, age 6 weeks
Conditions: in vivo, po, 0 mg/kg, […], tissue Plasma, route gavage, dose level Control, time 14 day
Observable: LDH (IU/L)

* CCOC(=O)[C@H](CCc1ccccc1)N[C@@H](C)C(=O)N1CCC[C@H]1C(=O)O | 105.2
* Cc1cccc(Nc2ccccc2C(=O)O)c1C | 154.4
* O=C(O)Cc1ccccc1Nc1c(Cl)cccc1Cl | 170
* CN(C)[C@@H]1C(O)=C(C(N)=O)C(=O)[C@@]2(O)C(O)=C3C(=O)c4c(O)cccc4[C@@](C)(O)[C@H]3C[C@@H]12 | 100.6
* C#C[C@]1(O)CC[C@H]2[C@@H]3CCC4=Cc5oncc5C[C@]4(C)[C@H]3CC[C@@]21C | 186.6
* CN1C(C(=O)Nc2ccccn2)=C(O)c2sc(Cl)cc2S1(=O)=O | 196.4
* C1CCC(C(CC2CCCCN2)C2CCCCC2)CC1 (stereo not drawn) | 180
* Clc1c(Cl)c(Cl)c(Cl)c(Cl)c1Cl | 98

###

Organism: Rattus norvegicus
Test: Open TG-GATES - Regimen: Single
Assay type: toxicity, organism-based, Sprague-Dawley
Design: regimen Single, gender Male, age 6 weeks
Conditions: in vivo, po, 0 mg/kg, 24 h, tissue Plasma, route gavage, dose level Control
Observable: CRE (mg/dL)

* Clc1c(Cl)c(Cl)c(Cl)c(Cl)c1Cl | 0.4
* CN1C(C(=O)Nc2ccccn2)=C(O)c2sc(Cl)cc2S1(=O)=O | 0.4
* Cc1cccc(Nc2ccccc2C(=O)O)c1C | 0.4

###

Some compounds, each annotated with its measured KIDNEY_R.
Species: Rattus norvegicus
Experiment: Open TG-GATES - Regimen: Daily Repeat
Format: toxicity, organism-based, Sprague-Dawley
Parameters: regimen Daily Repeat, gender Male, age 6 weeks
Details: in vivo, po, 0 mg/kg, […], tissue Kidney, route gavage, dose level Control, time 7 day
Observable: KIDNEY_R (g)

• CCOC(=O)[C@H](CCc1ccccc1)N[C@@H](C)C(=O)N1CCC[C@H]1C(=O)O = 1.2
• C#C[C@]1(O)CC[C@H]2[C@@H]3CCC4=Cc5oncc5C[C@]4(C)[C@H]3CC[C@@]21C [DANAZOL] = 1.1
• C1CCC(C(CC2CCCCN2)C2CCCCC2)CC1 (stereo not drawn) [PERHEXILINE] = 1.1
• Clc1c(Cl)c(Cl)c(Cl)c(Cl)c1Cl [PERCHLOROBENZENE] = 1.2
• Cc1cccc(Nc2ccccc2C(=O)O)c1C [MEFENAMIC ACID] = 1.1
• CN1C(C(=O)Nc2ccccn2)=C(O)c2sc(Cl)cc2S1(=O)=O [LORNOXICAM] = 1.2
• CN(C)[C@@H]1C(O)=C(C(N)=O)C(=O)[C@@]2(O)C(O)=C3C(=O)c4c(O)cccc4[C@@](C)(O)[C@H]3C[C@@H]12 [TETRACYCLINE] = 1
• CC(CN1c2ccccc2Sc2ccccc21)N(C)C (stereo not drawn) [PROMETHAZINE] = 1.2

###

Organism: Rattus norvegicus
Assay: Open TG-GATES - Regimen: Daily Repeat
Format: toxicity, organism-based, Sprague-Dawley
Set-up: regimen Daily Repeat, gender Male, age 6 weeks
Details: in vivo, po, 0 mg/kg, […], tissue Plasma, route gavage, dose level Control, time 14 day
Observable: TC (mg/dL)

• Cc1cccc(Nc2ccccc2C(=O)O)c1C = 73.4
• CN1C(C(=O)Nc2ccccn2)=C(O)c2sc(Cl)cc2S1(=O)=O = 72.8
• C#C[C@]1(O)CC[C@H]2[C@@H]3CCC4=Cc5oncc5C[C@]4(C)[C@H]3CC[C@@]21C = 74.4
• CC(CN1c2ccccc2Sc2ccccc21)N(C)C (centres undefined) = 66
